measurementTarget: GPIIb/IIIa (Homo sapiens, UniProt P05106+P08514)
Construct: Purification of GPIIb/IIIa from HEL cells; endogenous in cells; host or cells: HEL cells (HEL 92.1.7, ATCC TIB180); endogenous complex solubilized with Triton X-100 and purified in house
Sequence (P08514 32-887 limits assumed): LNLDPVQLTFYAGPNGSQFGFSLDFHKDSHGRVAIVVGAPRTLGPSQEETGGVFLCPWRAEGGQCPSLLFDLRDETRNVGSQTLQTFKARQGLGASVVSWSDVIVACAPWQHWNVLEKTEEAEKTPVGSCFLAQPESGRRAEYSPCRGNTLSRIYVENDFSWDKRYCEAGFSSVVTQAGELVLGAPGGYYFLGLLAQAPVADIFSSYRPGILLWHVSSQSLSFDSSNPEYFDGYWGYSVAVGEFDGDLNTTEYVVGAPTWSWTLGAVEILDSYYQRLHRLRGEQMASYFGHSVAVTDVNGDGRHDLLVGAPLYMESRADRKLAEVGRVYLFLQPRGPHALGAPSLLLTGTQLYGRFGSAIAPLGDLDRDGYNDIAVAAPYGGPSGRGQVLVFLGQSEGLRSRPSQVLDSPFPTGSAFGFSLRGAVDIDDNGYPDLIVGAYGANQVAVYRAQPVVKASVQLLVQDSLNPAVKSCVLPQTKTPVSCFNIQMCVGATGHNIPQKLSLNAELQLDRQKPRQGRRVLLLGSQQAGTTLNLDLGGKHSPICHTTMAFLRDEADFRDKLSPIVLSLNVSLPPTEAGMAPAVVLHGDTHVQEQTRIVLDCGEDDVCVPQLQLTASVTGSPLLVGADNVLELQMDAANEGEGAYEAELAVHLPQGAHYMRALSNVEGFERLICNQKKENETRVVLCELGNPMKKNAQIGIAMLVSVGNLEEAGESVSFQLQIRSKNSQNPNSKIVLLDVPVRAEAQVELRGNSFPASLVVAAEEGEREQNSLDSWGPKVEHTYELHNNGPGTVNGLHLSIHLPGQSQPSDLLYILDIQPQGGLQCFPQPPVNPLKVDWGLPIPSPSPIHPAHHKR
Sequence (P08514 891-1039 limits assumed): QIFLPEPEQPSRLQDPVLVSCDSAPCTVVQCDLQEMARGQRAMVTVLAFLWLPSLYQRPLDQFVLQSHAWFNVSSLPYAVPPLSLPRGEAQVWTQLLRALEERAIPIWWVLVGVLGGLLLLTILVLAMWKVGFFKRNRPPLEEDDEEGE
Sequence (P05106 27-788): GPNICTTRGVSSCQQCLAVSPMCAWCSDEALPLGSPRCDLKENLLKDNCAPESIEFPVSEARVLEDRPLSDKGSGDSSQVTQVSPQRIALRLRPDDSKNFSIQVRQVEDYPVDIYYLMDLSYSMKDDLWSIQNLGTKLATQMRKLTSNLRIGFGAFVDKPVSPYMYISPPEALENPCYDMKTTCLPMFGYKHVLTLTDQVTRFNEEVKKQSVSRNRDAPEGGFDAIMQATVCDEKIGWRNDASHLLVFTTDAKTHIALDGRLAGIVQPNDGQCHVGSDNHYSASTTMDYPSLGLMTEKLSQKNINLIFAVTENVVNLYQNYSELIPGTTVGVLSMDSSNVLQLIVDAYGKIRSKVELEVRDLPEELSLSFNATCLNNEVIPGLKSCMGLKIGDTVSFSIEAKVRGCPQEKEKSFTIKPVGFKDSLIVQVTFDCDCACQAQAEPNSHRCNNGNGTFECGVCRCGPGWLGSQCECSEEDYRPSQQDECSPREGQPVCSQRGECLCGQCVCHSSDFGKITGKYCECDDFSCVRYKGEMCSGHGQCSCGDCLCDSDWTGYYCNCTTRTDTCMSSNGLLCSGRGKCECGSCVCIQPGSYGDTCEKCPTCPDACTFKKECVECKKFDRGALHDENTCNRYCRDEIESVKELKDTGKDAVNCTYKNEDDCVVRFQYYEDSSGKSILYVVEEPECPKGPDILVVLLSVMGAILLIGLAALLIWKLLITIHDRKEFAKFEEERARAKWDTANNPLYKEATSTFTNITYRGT
procedureSummary: Inhibitory activity against binding of GPIIb/IIIa and fibrinogen
conditionNotes: Table 2; 10^-6 M; read-out: GPIIb/IIIa Fibrinogen Binding Inhibitory Activity
readoutKind: inhibition at 1 µM (%)
Give bare numbers, in %.

Completed entries (count: 3):
{"compound": "CCn1cc(C(=O)O)c(=O)c2cc(F)c(SC3CCN(C)CC3)cc21", "measurementTarget": "GPIIb/IIIa (Homo sapiens, UniProt P05106+P08514)", "unitText": "%", "inhibition at 1 µM": 26}
{"compound": "O=C(O)c1cn(Cc2ccc(Cl)cc2)c2c(F)c(N3CCNCC3)c(F)cc2c1=O", "measurementTarget": "GPIIb/IIIa (Homo sapiens, UniProt P05106+P08514)", "unitText": "%", "inhibition at 1 µM": 26.1}
{"compound": "CCN1CCCC1CNc1c(F)cc2c(=O)c(C(=O)O)cn(C3CC3)c2c1F (stereo not shown)", "measurementTarget": "GPIIb/IIIa (Homo sapiens, UniProt P05106+P08514)", "unitText": "%", "inhibition at 1 µM": 24.9}

Request: What inhibition at 1 µM value was documented for this compound, COc1ccc(Cn2cc(C(=O)O)c(=O)c3ccc(N4CCNCC4)cc32)cc1 ?
Result: 100
